# pIC50 per entry for Human immunodeficiency virus type 1 integrase (Human immunodeficiency virus 1)
pIC50: −log10 of the molar value.

SAMPLE SMILES	pIC50
Cc1nn(Cc2ccc(F)cc2)c(=O)c2c(O)c3n(c12)[C@@H](C)CN(C(C)C)C3=O	≥ 8.00

Consider now this further compound.
Lookup: // fetch pIC50; item: `CC(C)N1C[C@H](C)n2c(c(O)c3c(=O)n(Cc4ccc(F)cc4)ncc32)C1=O` ; system: Human immunodeficiency virus type 1 integrase (Human immunodeficiency virus 1)
Sequence (Q7ZJM1 whole entry): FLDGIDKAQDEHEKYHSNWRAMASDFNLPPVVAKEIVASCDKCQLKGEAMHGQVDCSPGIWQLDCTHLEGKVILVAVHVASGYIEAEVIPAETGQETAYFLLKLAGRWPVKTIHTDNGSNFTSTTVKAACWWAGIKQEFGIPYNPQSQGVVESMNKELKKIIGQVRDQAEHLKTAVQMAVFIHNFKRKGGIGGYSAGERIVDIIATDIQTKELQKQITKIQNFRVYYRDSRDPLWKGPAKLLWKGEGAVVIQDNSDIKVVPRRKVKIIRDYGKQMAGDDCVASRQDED
Found: ≥ 8.00

---

Test system: Human immunodeficiency virus 1
PROTOCOL DESCRIPTION: Antiviral activity against HIV1 3B in human MT4 cells assessed as reduction in p24 antigen levels after 72 hrs by multi-cycle viral replication assay in presence of 50% normal human serum
Format: functional
METRIC: IC95 (nM)
The reply should be a number in nM, with the unit left off.

Answered examples (3):
SAMPLE SMILES	IC95 [nM]
CC(C)N1C[C@H](C)n2c(c(O)c3c(=O)n(Cc4ccc(F)c(Cl)c4)ncc32)C1=O	220
CCN1C[C@H](C)n2c(c(O)c3c(=O)n(Cc4ccc(F)cc4)nc(C)c32)C1=O	40
CC(C)N1C[C@H](C)n2c(c(O)c3c(=O)n(Cc4ccc(F)cc4)ncc32)C1=O	26

Lookup: Give IC95 for `CCN1C[C@@H](C)n2c(c(O)c3c(=O)n(Cc4ccc(F)cc4)ncc32)C1=O`
Found: 500

Lookup: Find the measured IC95 of `Cc1nn(Cc2ccc(F)cc2)c(=O)c2c(O)c3n(c12)[C@@H](C)CN(C(C)C)C3=O` and report it.
Found: 35

Lookup: Give IC95 for the following molecule: `CCN1C[C@H](C)n2c(c(O)c3c(=O)n(Cc4ccc(F)cc4)ncc32)C1=O`
Found: 46

Lookup: Return value of IC95 for input `CN1CCn2c(c(O)c3c(=O)n(Cc4ccc(F)cc4)ncc32)C1=O` , no commentary.
Found: 380

Lookup: Fill in reported IC95 for this entry: `Cc1nn(Cc2ccc(F)cc2)c(=O)c2c(O)c3n(c12)[C@H](C)CN(C)C3=O`
Found: 1000

Lookup: Fill in IC95 for record `Cc1nn(Cc2ccc(F)cc2)c(=O)c2c(O)c3n(c12)CCN(C)C3=O`
Found: 130

---

Vd: recorded values
PROTOCOL DESCRIPTION: Volume of distribution in Sprague-Dawley rat at 2 mg/kg, iv
Type: ADME, organism-based
Parameters: dose 2 mg/kg, route intravenous
CONDITION NOTES: in vivo
Write it as a number; the unit L/kg goes unstated.

Lookup: For the compound `Cc1nn(Cc2ccc(F)cc2)c(=O)c2c(O)c3n(c12)[C@@H](C)CN(C(C)C)C3=O` , give its reported Vd.
Found: 0.3

---

PROTOCOL DESCRIPTION: Clearance in Sprague-Dawley rat at 2 mg/kg, iv
Format: ADME, organism-based
Set-up: dose 2 mg/kg, route intravenous
CONDITION NOTES: in vivo
METRIC: clearance (mL/min/kg)
Answer in mL/min/kg, number only, no unit symbol.

Here are 5 compounds together with their reported answers.
SAMPLE SMILES	VAL
CCN1C[C@H](C)n2c(c(O)c3c(=O)n(Cc4ccc(F)c(Cl)c4)ncc32)C1=O	0.27
CCN1C[C@H](C)n2c(c(O)c3c(=O)n(Cc4ccc(F)cc4)nc(C)c32)C1=O	17
CCN1C[C@H](C)n2c(c(O)c3c(=O)n(Cc4ccc(F)cc4)ncc32)C1=O	0.5
CC(C)N1C[C@H](C)n2c(c(O)c3c(=O)n(Cc4ccc(F)c(Cl)c4)ncc32)C1=O	0.17
CCN1CC(C)(C)n2c(c(O)c3c(=O)n(Cc4ccc(F)cc4)ncc32)C1=O	0.68

Lookup: Supply recorded clearance for `CC(C)N1C[C@H](C)n2c(c(O)c3c(=O)n(Cc4ccc(F)cc4)ncc32)C1=O` here.
Found: 0.17

Lookup: Please list clearance recorded for the compound `Cc1nn(Cc2ccc(F)cc2)c(=O)c2c(O)c3n(c12)[C@@H](C)CN(C(C)C)C3=O`
Found: 3

---

PROTOCOL DESCRIPTION: Plasma half life in Sprague-Dawley rat at 2 mg/kg, iv
Type: ADME, organism-based
Design: dose 2 mg/kg, route intravenous
Hi! Could you tag entries with half-life below 10 h as condition met, and those at or above as condition not met? Much appreciated.

# count of solved cases: 3
SAMPLE SMILES	CLASS NAME
CCN1C[C@H](C)n2c(c(O)c3c(=O)n(Cc4ccc(F)c(Cl)c4)ncc32)C1=O	condition met
CCN1C[C@H](C)n2c(c(O)c3c(=O)n(Cc4ccc(F)cc4)nc(C)c32)C1=O	condition met
CC(C)N1C[C@H](C)n2c(c(O)c3c(=O)n(Cc4ccc(F)cc4)ncc32)C1=O	condition not met

Lookup: Could you please tell me whether half-life recorded for `CC(C)N1C[C@H](C)n2c(c(O)c3c(=O)n(Cc4ccc(F)c(Cl)c4)ncc32)C1=O` is less than 10 h?
Found: condition not met

Lookup: Dear reviewer, please state whether `CCN1CC(C)(C)n2c(c(O)c3c(=O)n(Cc4ccc(F)cc4)ncc32)C1=O` has half-life strictly beneath 10 h.
Found: condition met

Lookup: Could you please tell me whether half-life recorded for `Cc1nn(Cc2ccc(F)cc2)c(=O)c2c(O)c3n(c12)[C@@H](C)CN(C(C)C)C3=O` is less than 10 h?
Found: condition met

Lookup: Quick check: does `CCN1C[C@H](C)n2c(c(O)c3c(=O)n(Cc4ccc(F)cc4)ncc32)C1=O` have half-life under 10 h?
Found: condition met

---

PROTOCOL DESCRIPTION: Oral bioavailability in Beagle dog
Format: ADME, organism-based, Canis lupus familiaris
CONDITION NOTES: in vivo
METRIC: bioavailability

SAMPLE SMILES	bioavailability
Cc1nn(Cc2ccc(F)cc2)c(=O)c2c(O)c3n(c12)[C@@H](C)CN(C(C)C)C3=O	< 5%

Lookup: Provide only the value of recorded bioavailability for `CC(C)N1C[C@H](C)n2c(c(O)c3c(=O)n(Cc4ccc(F)cc4)ncc32)C1=O`
Found: < 5%

---

PROTOCOL DESCRIPTION: Oral bioavailability in Sprague-Dawley rat at 10 mg/kg
Format: ADME, organism-based
CONDITION NOTES: in vivo
METRIC: bioavailability (%)
Number only, in %; omit the unit.

SAMPLE SMILES	METRIC	UNIT SYMBOL	VAL
CC(C)N1C[C@H](C)n2c(c(O)c3c(=O)n(Cc4ccc(F)cc4)ncc32)C1=O	bioavailability	%	21

API: the following record is the query input.
Lookup: Specify measured bioavailability for `CCN1CC(C)(C)n2c(c(O)c3c(=O)n(Cc4ccc(F)cc4)ncc32)C1=O` .
Found: 13

---

Tested on: Human immunodeficiency virus 1
PROTOCOL DESCRIPTION: Antiviral activity against wild type HIV1 3B in human P4/R5 cells assessed as beta-galactosidase activity by single-cycle viral replication assay in presence of 10% FBS
Format: functional, organism-based
CONDITION NOTES: Human immunodeficiency virus 1, 3B
METRIC: pIC50
Interpret pIC50 as the negative base-10 log of the concentration measured in mol/L.

Study these solved cases before continuing.
SAMPLE SMILES	pIC50
Cc1nn(Cc2ccc(F)cc2)c(=O)c2c(O)c3n(c12)CCN(C)C3=O	7.68
CCN1CC(C)(C)n2c(c(O)c3c(=O)n(Cc4ccc(F)cc4)ncc32)C1=O	7.72
CC(C)N1C[C@H](C)n2c(c(O)c3c(=O)n(Cc4ccc(F)cc4)ncc32)C1=O	7.72
CC(C)N1C[C@H](C)n2c(c(O)c3c(=O)n(Cc4ccc(F)c(Cl)c4)ncc32)C1=O	7.55
Cc1nn(Cc2ccc(F)cc2)c(=O)c2c(O)c3n(c12)[C@H](C)CN(C)C3=O	7.18

Lookup: Please report the measured pIC50 for `Cc1nn(Cc2ccc(F)cc2)c(=O)c2c(O)c3n(c12)[C@@H](C)CN(C)C3=O` tested on Human immunodeficiency virus 1.
Found: 8.00

Lookup: Send back Human immunodeficiency virus 1 pIC50 of `CCN1C[C@H](C)n2c(c(O)c3c(=O)n(Cc4ccc(F)cc4)nc(C)c32)C1=O` only.
Found: 7.85

---

System: Human immunodeficiency virus 1
PROTOCOL DESCRIPTION: Antiviral activity against HIV1 3B in human MT4 cells assessed as reduction in p24 antigen levels after 72 hrs by multi-cycle viral replication assay in presence of 50% normal human serum
Format: functional
Parameter IC95: see the listing below.
Output spec: scalar in nM, unitless text.

For orientation, consider the following solved cases.
SAMPLE SMILES	TARGET DESC	METRIC	UNIT SYMBOL	VAL
CCN1C[C@H](C)n2c(c(O)c3c(=O)n(Cc4ccc(F)c(Cl)c4)ncc32)C1=O	Human immunodeficiency virus 1	IC95	nM	160
CCN1CC(C)(C)n2c(c(O)c3c(=O)n(Cc4ccc(F)cc4)ncc32)C1=O	Human immunodeficiency virus 1	IC95	nM	30

As a next step, examine the compound that follows.
Lookup: Give the value of IC95 reported for the following: `Cc1nn(Cc2ccc(F)cc2)c(=O)c2c(O)c3n(c12)[C@@H](C)CN(C)C3=O`
Found: 31
